Reference for the values: the C3SDB collision cross section collection

Conditions: [M+H]+; instrument: DT; stepped-field
Measurement Name: collision cross section (N2) (Å²)

{"Smiles Str": "CC/C=C\\C/C=C\\C/C=C\\C/C=C\\C/C=C\\CCCC(=O)O[C@H](COCCCCCCCCCCCCCCCC)COP(=O)([O-])OCC[N+](C)(C)C", "collision cross section (N2) [Å²]": 293.8}
{"Smiles Str": "CCCCCC/C=C\\CCCCCCCCCC(=O)OC[C@H](COP(=O)([O-])OCC[N+](C)(C)C)OC(=O)CCCCCCCCCCCCCCC", "collision cross section (N2) [Å²]": 300.3}
{"Smiles Str": "CCCCCCCC/C=C\\C/C=C\\C/C=C\\CCCC(=O)OC[C@H](COP(=O)([O-])OCC[N+](C)(C)C)OC(=O)CCCCCCCCCCCCC", "collision cross section (N2) [Å²]": 292.3}
{"Smiles Str": "CCCCC/C=C\\C/C=C\\CCCCCCCC(=O)O[C@H](COC(=O)CCCCCCCCCCCCCCC)COP(=O)(O)OCCN", "collision cross section (N2) [Å²]": 283.8}
{"Smiles Str": "CCCCCCCCCCCCCCCCCCCCC(=O)O[C@H](COC(=O)CCCCCCCCCCCC)COP(=O)([O-])OCC[N+](C)(C)C", "collision cross section (N2) [Å²]": 301.1}

###

Conditions: [M+NH4]+; instrument: DT; single field
Measurement Name: collision cross section (N2) (Å²)

{"Smiles Str": "CCCCC/C=C\\C/C=C\\CCCCCCCC(=O)O[C@@H](CO)COC(=O)CCCCCCCCCCCCC", "Measurement Name": "collision cross section (N2)", "Result": 253.01}
{"Smiles Str": "CCCCCCCCC/C=C\\CCCCCCCC(=O)OC[C@H](COC(=O)CCCCCCCCCCCCCCCCCCC)OC(=O)CCCCCCCCCCCCCCCCCCC", "Measurement Name": "collision cross section (N2)", "Result": 347.61}
{"Smiles Str": "CCCCCCCCCCCCCCCCCCCCC(=O)OC[C@@H](COC(=O)CCCCCCCCCCCC)OC(=O)CCCCCCCCCCCCCCCCCCCC", "Measurement Name": "collision cross section (N2)", "Result": 338.57}
{"Smiles Str": "CCCCCCCCCCCCCCCCCCCCCCC=CCC(=O)OC[C@H](CO)OC(=O)CC=CCCCCCCCCCCCCCCCCCCCCCC", "Measurement Name": "collision cross section (N2)", "Result": 319.62}
{"Smiles Str": "CC/C=C\\C/C=C\\C/C=C\\C/C=C\\C/C=C\\C/C=C\\CCC(=O)OC[C@@H](COC(=O)CCCCCCC/C=C\\CCCCC)OC(=O)CCCCCCCCCCCCCCCCCCCCC", "Measurement Name": "collision cross section (N2)", "Result": 337.86}

###

Conditions: [M+H]+; instrument: DT; single field, calibrated with Agilent tune mix (Agilent)
Measurement Name: collision cross section (N2) (Å²)

(A) N[C@@H](CSCC(=O)O)C(=O)O [S-Carboxymethyl-L-cysteine]
(B) CC(C)C(=O)SCCNC(=O)CCNC(=O)[C@H](O)C(C)(C)COP(=O)(O)OP(=O)(O)OC[C@H]1O[C@@H](n2cnc3c(N)ncnc32)[C@H](O)[C@@H]1OP(=O)(O)O [Isobutyryl-CoA]
Request: Of A and B , which one carries the higher reported collision cross section (N2)? // output: label of the selected item
Result: B
(B: 252 Å², A: 137.2 Å²)

(1) C[C@H](NC(=O)CC[C@H](N)C(=O)O)C(=O)O [5-L-Glutamyl-L-alanine]
(2) CCCCCCCCCCCCCCCC(=O)SCCNC(=O)CCNC(=O)[C@H](O)C(C)(C)COP(=O)(O)OP(=O)(O)OC[C@H]1O[C@@H](n2cnc3c(N)ncnc32)[C@H](O)[C@@H]1OP(=O)(O)O [Palmitoyl CoA]
Request: Response body: label of entry with the larger collision cross section (N2); valid values 1 , 2 . When you have decided, please share the label of that item.
Result: 2
(2: 296.2 Å², 1: 149.6 Å²)

###

Details: [M+Na-2H]-; instrument: DT; single field, calibrated with Agilent tune mix (Agilent)
Measurement Name: collision cross section (N2) (Å²)

{"Compound": "O=C(O)c1cc(=O)c2ccccc2[nH]1", "Unit Spec": "Å²", "collision cross section (N2)": 149.51}
{"Compound": "N[C@@H](Cc1ccc(O)c(I)c1)C(=O)O", "Unit Spec": "Å²", "collision cross section (N2)": 148.03}
{"Compound": "N[C@@H](CCSSCC[C@H](N)C(=O)O)C(=O)O (racemic)", "Unit Spec": "Å²", "collision cross section (N2)": 152.2}

###

Settings: [M+Cl]-; instrument: DT; stepped-field
Measurement Name: collision cross section (N2) (Å²)

{"Compound": "CCCCCCCCCCCCCCCCCCCCCC(=O)N[C@@H](CO[C@@H]1O[C@H](CO)[C@@H](O)C(O)C1O)[C@H](O)CCCCCCCCCCCCCCC (stereo partly specified)", "Unit Spec": "Å²", "collision cross section (N2)": 293.17}
{"Compound": "CC/C=C\\C/C=C\\C/C=C\\C/C=C\\C/C=C\\CCCCCC(=O)O[C@H](COC(=O)CCCCCCCCCCCCCCC)COP(=O)([O-])OCC[N+](C)(C)C", "Unit Spec": "Å²", "collision cross section (N2)": 297.1}
{"Compound": "CCCCCCCCCCCCC=CC[C@@H](O)[C@H](COP(=O)([O-])OCC[N+](C)(C)C)NC(=O)CCCCCCCCCCCCCCCCCCCCC", "Unit Spec": "Å²", "collision cross section (N2)": 300.79}
{"Compound": "CCCCCCCCCCCCCCCCCCCCCC(=O)N[C@@H](COP(=O)([O-])OCC[N+](C)(C)C)[C@H](O)CCCCCCCCCCCCCCC", "Unit Spec": "Å²", "collision cross section (N2)": 301.5}
{"Compound": "CCCCC/C=C\\C=C/CCCCCCCCC(=O)O[C@H](COC(=O)CCCCCCCCCCCCCCCCC)COP(=O)([O-])OCC[N+](C)(C)C", "Unit Spec": "Å²", "collision cross section (N2)": 295.12}
{"Compound": "CC/C=C/C=C/C=C/C=C/CCCCCCCC(=O)O[C@H](COC(=O)CCCCCCCCCCCCCCCCC)COP(=O)([O-])OCC[N+](C)(C)C", "Unit Spec": "Å²", "collision cross section (N2)": 293.08}

###

Conditions: [M+H]+; instrument: TW; calibrated with phosphatidylcholines (ESI+) and phosphatidylethanolamines (ESI-)
Measurement Name: collision cross section (N2) (Å²)

{"Molecule": "CCCCCCCC/C=C\\C/C=C\\C/C=C\\CCCC(=O)OC[C@H](COP(=O)([O-])OCC[N+](C)(C)C)OC(=O)CCCCCCCCCCCCC", "Result": 278.8}
{"Molecule": "CCCCC/C=C\\C/C=C\\C/C=C\\CCCCCCC(=O)O[C@H](CO/C=C\\CCCCCCCCCCCCCCCCCC)COP(=O)(O)OCCN", "Result": 287.9}
{"Molecule": "CCCCCCCCCCCCC=CC[C@@H](O)[C@H](CO)NC(=O)CCCCCCCCCCCCCCCCC [Cer(d18:1/18:0)]", "Result": 261.2}
{"Molecule": "CCCCCCCCCCCCCCCCCCCCCCCC(=O)N[C@@H](CO)[C@H](O)CCCCCCCCCCCCCCC", "Result": 279.6}
{"Molecule": "CCCCCCCCCCCCC=CC[C@@H](O)[C@H](CO)NC(=O)CCCCCCCCCCCCCCCCCCCCCCCCC [Cer(d18:1/26:0)]", "Result": 284.4}
{"Molecule": "CCCCC/C=C\\C/C=C\\CCCCCCCCCC(=O)O[C@H](COC(=O)CCCCCCCCCCCCCCC)COP(=O)(O)OCCN", "Result": 275.7}
{"Molecule": "CCCCC/C=C\\C/C=C\\CCCCCCCCCC(=O)O[C@H](COC(=O)CCCCCCCCCCCCC)COP(=O)(O)OCCN", "Result": 269.9}
{"Molecule": "CCCCC/C=C\\C/C=C\\C/C=C\\CCCCC(=O)OC[C@H](COP(=O)(O)OCCN)OC(=O)CCCCCCCCCCC/C=C\\C/C=C\\CCCCC", "Result": 284.8}

###

Conditions: [M+Na]+; instrument: TW; calibrated with phosphatidylcholines (ESI+) and phosphatidylethanolamines (ESI-)
Measurement Name: collision cross section (N2) (Å²)

{"Compound": "CCCCCCCCCCCC=CCC(=O)OC[C@H](CO[C@@H]1O[C@H](CO[C@H]2O[C@H](CO)[C@H](O)C(O)C2O)[C@H](O)C(O)C1O)OC(=O)CC=CCCCCCCCCCCC (some centres undefined) [DGDG(30:2)]", "collision cross section (N2) (Å²)": 291.7}
{"Compound": "CC/C=C\\C/C=C\\C/C=C\\CCCCCCCC(=O)OC[C@H](CO[C@@H]1O[C@H](CO)[C@H](O)C(O)C1O)OC(=O)CCCCC/C=C\\CCCCCCCC (some centres undefined) [MGDG(16:1/18:3)]", "collision cross section (N2) (Å²)": 278.6}
{"Compound": "CC/C=C\\C/C=C\\C/C=C\\CCCCCCCC(=O)OC[C@H](CO[C@@H]1O[C@H](CO)[C@H](O)C(O)C1O)OC(=O)CCCCCCC/C=C\\C/C=C\\C/C=C\\CC (some centres undefined) [MGDG(18:3/18:3)]", "collision cross section (N2) (Å²)": 281}
{"Compound": "CCCCCCCCCCCCCCCC(=O)OC[C@H](CO[C@@H]1O[C@H](CO[C@H]2O[C@H](CO)[C@H](O)C(O)C2O)[C@H](O)C(O)C1O)OC(=O)CCCCCCCCCCCCCCC (some centres undefined) [DGDG(32:0)]", "collision cross section (N2) (Å²)": 306.7}
